- assay_target: AIPL1 (full-length mouse AIPL1) (Mus musculus, UniProt Q924K1)
- Construct: full-length (aa 1-328), His6-tagged from pET15b, expressed in E. coli BL21(DE3), purified by Ni-NTA, Mono Q and SEC; prenyl site in the FKBP domain
- Sequence (Q924K1 whole entry, the tested form may be a part): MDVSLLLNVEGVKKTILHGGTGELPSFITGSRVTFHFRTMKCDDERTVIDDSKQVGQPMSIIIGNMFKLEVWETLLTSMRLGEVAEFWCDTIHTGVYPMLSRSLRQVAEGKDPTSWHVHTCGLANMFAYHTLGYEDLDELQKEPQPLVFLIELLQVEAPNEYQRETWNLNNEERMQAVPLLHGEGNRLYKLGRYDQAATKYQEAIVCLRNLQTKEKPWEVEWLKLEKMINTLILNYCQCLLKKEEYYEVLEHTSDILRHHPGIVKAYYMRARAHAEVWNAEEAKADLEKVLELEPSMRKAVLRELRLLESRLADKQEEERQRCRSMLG
- protocol_text: fluorescence titration, ex […] nm, em […] nm, fit with ligand depletion
measurement_name: Kd (nM)
Write the value in nM as a bare number.

Problem: Bench note: what Kd did `CC(C)=CCC/C(C)=C/CC/C(C)=C/CSC[C@H](NC(=O)CCCCCNC(=O)Cc1c(C)c2ccc(N)cc2oc1=O)C(=O)O` show?
Solution: 700

The reported measurements were obtained from paper PMC8857470.
